Molecular target: SpPex13
Experiment: SPOT peptide array binding signal intensity (averaged, normalized) (arbitrary units (background-subtracted, floor 0; scale differs between SH3 domains)); higher = stronger binding of the SH3 domain to the peptide
Attribute Measured: SPOT peptide array binding signal intensity
Just the number.

(Q) Entry YHSRRHPLALGFKYV has what SPOT peptide array binding signal intensity?
(A) 52

(Q) Entry LLIRWLILMPLVGSR has what SPOT peptide array binding signal intensity?
(A) 232

(Q) Entry RTRRRPPPPPIPSTQ has what SPOT peptide array binding signal intensity?
(A) 26.5

(Q) Entry IRMPSNPALPKKLLN has what SPOT peptide array binding signal intensity?
(A) 136
